Field: Biodistribution: muscle. Provide a value for each of the compounds that follow.
- Tested on: PSMA + PC-3 PiP and PSMA − PC-3 flu tumor xenografts
- experimentalParameters: 2 H post-injection
Give bare numbers, in % ID/g.

Recorded results for 3 compounds are shown here.
compound: N=C(N)NCc1ccc(C(=O)NCCCCC(NC(=O)CCCCCCC(=O)NCCCC[C@H](NC(=O)N[C@@H](CCC(=O)O)C(=O)O)C(=O)O)C(=O)O)cc1[131I] (some centres unmarked) [[^131I] labeled PSMA-904]
experimentalEndpoint: Biodistribution: muscle
experimentalValue: 0.13
//
compound: N=C(N)NCc1ccc(C(=O)NCCCC[C@H](NC(=O)N[C@@H](CCC(=O)O)C(=O)O)C(=O)O)cc1[131I] [[^131I] labeled 7 (PSMA-620)]
experimentalEndpoint: Biodistribution: muscle
experimentalValue: 0.34
//
compound: O=C(O)CC[C@H](NC(=O)NC(CCCCNC(=O)c1ccc([211At])cc1)C(=O)O)C(=O)O (some centres unmarked) [[^211At]YC-I-27]
experimentalEndpoint: Biodistribution: muscle
experimentalValue: 0.81

Dear colleague, could you please provide Biodistribution: muscle for the compounds listed below?
1. O=C(O)CC[C@H](NC(=O)N[C@@H](CCC(=O)NCCc1ccc([211At])cc1)C(=O)O)C(=O)O [[^211At]HS-549]
2. O=C(O)CC[C@H](NC(=O)N[C@@H](CCCCNC(=O)c1ccc([131I])cc1)C(=O)O)C(=O)O [[^131I]YC-I-27]

[out]
1: 0.76; 2: 0.62
